# SYSTEM NAME: Glycogen synthase kinase-3 beta (Homo sapiens) (UniProt P49841)
# Sequence (P49841 whole entry, looked up): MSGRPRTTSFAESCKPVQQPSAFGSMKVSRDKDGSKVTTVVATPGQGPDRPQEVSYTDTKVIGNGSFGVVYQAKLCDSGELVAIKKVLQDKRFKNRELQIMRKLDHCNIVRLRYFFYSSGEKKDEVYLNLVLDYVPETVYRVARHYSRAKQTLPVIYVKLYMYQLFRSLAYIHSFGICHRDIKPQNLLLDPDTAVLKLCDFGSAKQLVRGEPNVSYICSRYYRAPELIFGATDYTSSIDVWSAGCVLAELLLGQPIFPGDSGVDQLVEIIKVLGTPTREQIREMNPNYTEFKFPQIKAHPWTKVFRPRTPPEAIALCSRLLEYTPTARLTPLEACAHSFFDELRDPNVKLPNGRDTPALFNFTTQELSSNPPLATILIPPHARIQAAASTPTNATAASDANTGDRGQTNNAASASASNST
# STUDY CONDITIONS: Compound concentration 20.0 uM
# Description: Thermal Shift Assay. Domain: start/stop: M26-R383
Residues, ends and D or L forms follow the SMILES beside them. *: point of attachment. Boc = CC(C)(C)OC(=O)*
The threshold is inclusive: ΔTm of exactly -1 °C counts as MET; values below receive NOT MET.

- CS(=O)(=O)c1ccc(Oc2cc(F)cc(C#N)c2)c2c1[C@H](O)C(F)(F)C2: MET
- COC(=O)[C@H]1[C@H]2C[C@@H]3c4[nH]c5cc(OC)ccc5c4CCN3C[C@H]2C[C@@H](OC(=O)c2cc(OC)c(OC)c(OC)c2)[C@@H]1OC: MET
- NS(=O)(=O)c1cc(-c2nnn[nH]2)c(NCc2cccs2)cc1Cl: MET
- Cc1cnc(-c2ccccc2C(C)C)nc1NCc1ccc(-n2ccnn2)cc1: MET
- O=C(O)c1cccc(-c2ccc(-c3cn(C(=O)N4CCCCC4Cc4ccccc4)nn3)cc2)c1 (configuration not stated): NOT MET
- CC(C)[C@H](NC(=O)[C@H](CCC(=O)O)NC(=O)[C@H](C)NC(=O)OC(C)(C)C)C(=O)N[C@H](C=O)CC(=O)O (Boc-AEVD-aldehyde): NOT MET
